Hello, the source for this data is patent US20100138945A1, in case you need it.

- Target Or Test System: T1, human IL-6 (Interleukin-6) (human, UniProt P05231 30-212)
- T1 construct: also called 001 IL-6 antigen
- Protocol Text: Biacore (SPR), antibody captured on anti-human Fc, IL-6 as analyte
Here the recorded kon is given for each entry.
Just the number in M⁻¹ s⁻¹, nothing appended.

Consider the worked cases shown below.
* Clone BA399-09 (antibody, V domains shown, also called BA399-9; BA399 clone #9) VH: QVQLVQSGAEVKKPGASVKVSCKASGFTFSSFSMSWIRQSPSRGLEWLGEISSGGSYHYYPDTVTGRFTISRDNAKNSLYLQMNSLRAEDTAVYYCARGQWGYYALDYWGQG VL: AIQLTQSPSSLSASVGDRVTITCYASSSVSYMYWYQQKPGQAPRLLIYDTLNLASGIPPRFSGSGYGTDFTLTINNIESEDAAYYFCQQWSGYPYTFGQG | 648000
* BA399_CPS_10 (antibody, V domains shown, also called Clone BA399-10; BA399_10) VH: QVQLVQSGAEVKKPGASVKVSCKASHFTFSSFSMSWIRQSPSRGLEWLGEISSGGSYHYYPDTVTGRFTISRDNAKNSLYLQMNSLRAEDTAVYYCARGQWGYYALDYWGQG VL: AIQLTQSPSSLSASVGDRVTITCYASSSVSYMYWYQQKPGQAPRLLIYDTLNLASGIPPRFSGSGYGTDFTLTINNIESEDAAYYFCQQWSGYPYTFGQG | 643000
* Clone BA399-02 (antibody, V domains shown, also called BA399-2; BA399 clone #2) VH: QVQLVQSGAEVKKPGASVKVSCKASGFTFSSFSMSWIRQSPSRGLEWLGEISSGGSYTYYPDTKTGRFTISRDNAKNSLYLQMNSLRAEDTAVYYCARGQWGYYALDYWGQG VL: AIQLTQSPSSLSASVGDRVTITCYASSSVSYMYWYQQKPGQAPRLLIYDTSNLASGIPPRFSGSGYGTDFTLTINNIESEDAAYYFCQQWSGYPYTFGQG | 742000

[ask] Item under review: Clone BA399-05 (antibody, V domains shown, also called BA399-5) VH: QVQLVQSGAEVKKPGASVKVSCKASGFTFSSFAMSWIRQSPSRGLEWLGEISSGGSYTYYPDTKTGRFTISRDNAKNSLYLQMNSLRAEDTAVYYCARGQWGYYALDYWGQG VL: AIQLTQSPSSLSASVGDRVTITCYASSSVSYMYWYQQKPGQAPRLLIYDTSNLASGIPPRFSGSGYGTDFTLTINNIESEDAAYYFCQDWSGYPYTFGQG . Reported kon?
[reply] 1.01e+06
